# Target under test: mutant G12C K-RAS (Homo sapiens, UniProt P01116, G12C)
# Construct: made in house; host or cells: E. coli BL21
# Experiment notes: covalent adduct formation (CAF) with mutant G12C K-RAS
# Assay type: binding
# Details: Table 6; 10 uM, 1 h
# Protocol: Embodiments disclosed herein are further illustrated by the following examples in Tables 1-4 and the Examples hereinbelow. The Tables indicate the compound number, structure, the observed mass spectral molecular weight peak, and covalent adduct formation (CAF) with a mutant G12C K-RAS after 60 minutes at a concentration of 10 micromolar.
Catalogue of compounds with associated % CAF @ 10 uM, 1 h
Field: numeric (%). Do not append units.

# annotated cases, reported % CAF @ 10 uM, 1 h shown
C=CC(=O)N1C[C@H](C)N(c2nc(=O)n3c4c(c(-c5c(O)cccc5F)c(Cl)cc24)OC[C@H]3CN2CCOCC2)C[C@H]1C (atropisomer, axis not shown)
0
C=CC(=O)N1C[C@H](C)N(c2nc(=O)n3c4c(c(-c5c(O)cccc5F)c(Cl)cc24)OC[C@@H]3CN2CCN(C)CC2)C[C@H]1C (atropisomer, axis not shown)
0
C=CC(=O)N1C[C@H](C)N(c2nc(=O)n3c4c(c(-c5c(C)ccc6[nH]ncc56)c(Cl)cc24)OC[C@@H]3CCCN2C3CCC2COC3)C[C@H]1C
0

Problem: I would be grateful if you could share the reported % CAF @ 10 uM, 1 h for `C=CC(=O)N1C[C@H](C)N(c2nc(=O)n3c4c(c(-c5ccc(F)cc5F)c(Cl)cc24)OC[C@H]3CCCN2C3CCC2CN(C)C3)C[C@H]1C` .
Solution: 71.2

Problem: I would be grateful if you could share the reported % CAF @ 10 uM, 1 h for C=CC(=O)N1CCN(c2nc(=O)n3c4c(c(-c5c(O)cccc5F)c(Cl)cc24)OC[C@H]3CN2CCOCC2)[C@@H](C)C1 [Example 198] .
Solution: 100

###

# Target under test: mutant G12C K-RAS (Homo sapiens, UniProt P01116, G12C)
# Construct: made in house; host or cells: E. coli BL21
# Experiment notes: covalent adduct formation (CAF) with mutant G12C K-RAS
# Format: binding
# Parameters: unit not given here
# Details: Table 7; 10 micromolar, after 60 minutes
Value type: covalent adduct formation (CAF)
Returns: the value as a bare number; no unit string appended.

# annotated cases, reported covalent adduct formation (CAF) shown
C=CC(=O)N1CCN(c2nc(=O)n3c4c(c(-c5c(F)cc(F)cc5F)c(Cl)cc24)SC[C@H]3COC)[C@@H](C)C1
86.8
C=CC(=O)N1CCN(c2nc(=O)n3c4c(c(-c5ccc(F)cc5F)c(Cl)cc24)SC[C@H]3CCCN2C[C@@H]3C[C@H]2CO3)[C@@H](C)C1
96.5

Problem: I would be grateful if you could share the reported covalent adduct formation (CAF) for `C=CC(=O)N1CCN(c2nc(=O)n3c4c(c(-c5ccc(F)cc5F)c(Cl)cc24)SC[C@H]3COC)[C@@H](C)C1` .
Solution: 94.5

Problem: I would be grateful if you could share the reported covalent adduct formation (CAF) for `C=CC(=O)N1CCN(c2nc(=O)n3c4c(c(-c5c(F)cc(F)cc5F)c(Cl)cc24)SC[C@@H]3CC2CCN(C)CC2)[C@@H](C)C1` .
Solution: 96.7

Problem: I would be grateful if you could share the reported covalent adduct formation (CAF) for `C=CC(=O)N1CCN(c2nc(=O)n3c4c(c(-c5c(F)cc(F)cc5F)c(Cl)cc24)SC[C@@H]3CCCN2C[C@@H]3C[C@H]2CO3)[C@@H](C)C1` .
Solution: 96.9

Problem: I would be grateful if you could share the reported covalent adduct formation (CAF) for `C=CC(=O)N1CCN(c2nc(=O)n3c4c(c(-c5ccc(F)cc5F)c(Cl)cc24)SC(C)(C)C3)[C@@H](C)C1` .
Solution: 86.8

###

# Target under test: mutant G12C K-RAS (Homo sapiens, UniProt P01116, G12C)
# Construct: made in house; host or cells: E. coli BL21
# Experiment notes: covalent adduct formation (CAF) with mutant G12C K-RAS
# Type: binding
# Design: unit not given here
# Details: Table 7; 10 micromolar, after 60 minutes
covalent adduct formation (CAF) strictly under 90 means 1 (yes); at 90 or over means 0 (no).

Solved cases (3 shown):
C=CC(=O)N1CCN(c2nc(=O)n3c4c(c(-c5ccc(F)cc5F)c(Cl)cc24)SC[C@H]3CN2CCN(CC)CC2)[C@@H](C)C1
1 (yes)
C=CC(=O)N1CCN(c2nc(=O)n3c4c(c(-c5ccc(F)cc5F)c(Cl)cc24)SC[C@@H]3CCCN2C[C@@H]3C[C@H]2CO3)[C@@H](C)C1
0 (no)
C=CC(=O)N1CCN(c2nc(=O)n3c4c(c(-c5c(F)cc(F)cc5F)c(Cl)cc24)SC[C@H]3CC2CCN(C)CC2)[C@@H](C)C1
0 (no)

Problem: Quick check: does `C=CC(=O)N1CCN(c2nc(=O)n3c4c(c(-c5c(F)cc(F)cc5F)c(Cl)cc24)SC[C@H]3CCCN2C[C@@H]3C[C@H]2CO3)[C@@H](C)C1` have covalent adduct formation (CAF) under 90?
Solution: 0 (no)

Problem: Quick check: does `C=CC(=O)N1CCN(c2nc(=O)n3c4c(c(-c5ccc(F)cc5F)c(Cl)cc24)SC[C@H]3C)[C@@H](C)C1` have covalent adduct formation (CAF) under 90?
Solution: 1 (yes)

Problem: Quick check: does `C=CC(=O)N1CCN(c2nc(=O)n3c4c(c(-c5ccc(F)cc5F)c(Cl)cc24)SC[C@H]3CC2CCN(C)CC2)[C@@H](C)C1` have covalent adduct formation (CAF) under 90?
Solution: 1 (yes)
